# testedTarget: KDM6A (UTX) (Homo sapiens)
# Construct: purchased BPS Bioscience
# Sequence (O15550 whole entry): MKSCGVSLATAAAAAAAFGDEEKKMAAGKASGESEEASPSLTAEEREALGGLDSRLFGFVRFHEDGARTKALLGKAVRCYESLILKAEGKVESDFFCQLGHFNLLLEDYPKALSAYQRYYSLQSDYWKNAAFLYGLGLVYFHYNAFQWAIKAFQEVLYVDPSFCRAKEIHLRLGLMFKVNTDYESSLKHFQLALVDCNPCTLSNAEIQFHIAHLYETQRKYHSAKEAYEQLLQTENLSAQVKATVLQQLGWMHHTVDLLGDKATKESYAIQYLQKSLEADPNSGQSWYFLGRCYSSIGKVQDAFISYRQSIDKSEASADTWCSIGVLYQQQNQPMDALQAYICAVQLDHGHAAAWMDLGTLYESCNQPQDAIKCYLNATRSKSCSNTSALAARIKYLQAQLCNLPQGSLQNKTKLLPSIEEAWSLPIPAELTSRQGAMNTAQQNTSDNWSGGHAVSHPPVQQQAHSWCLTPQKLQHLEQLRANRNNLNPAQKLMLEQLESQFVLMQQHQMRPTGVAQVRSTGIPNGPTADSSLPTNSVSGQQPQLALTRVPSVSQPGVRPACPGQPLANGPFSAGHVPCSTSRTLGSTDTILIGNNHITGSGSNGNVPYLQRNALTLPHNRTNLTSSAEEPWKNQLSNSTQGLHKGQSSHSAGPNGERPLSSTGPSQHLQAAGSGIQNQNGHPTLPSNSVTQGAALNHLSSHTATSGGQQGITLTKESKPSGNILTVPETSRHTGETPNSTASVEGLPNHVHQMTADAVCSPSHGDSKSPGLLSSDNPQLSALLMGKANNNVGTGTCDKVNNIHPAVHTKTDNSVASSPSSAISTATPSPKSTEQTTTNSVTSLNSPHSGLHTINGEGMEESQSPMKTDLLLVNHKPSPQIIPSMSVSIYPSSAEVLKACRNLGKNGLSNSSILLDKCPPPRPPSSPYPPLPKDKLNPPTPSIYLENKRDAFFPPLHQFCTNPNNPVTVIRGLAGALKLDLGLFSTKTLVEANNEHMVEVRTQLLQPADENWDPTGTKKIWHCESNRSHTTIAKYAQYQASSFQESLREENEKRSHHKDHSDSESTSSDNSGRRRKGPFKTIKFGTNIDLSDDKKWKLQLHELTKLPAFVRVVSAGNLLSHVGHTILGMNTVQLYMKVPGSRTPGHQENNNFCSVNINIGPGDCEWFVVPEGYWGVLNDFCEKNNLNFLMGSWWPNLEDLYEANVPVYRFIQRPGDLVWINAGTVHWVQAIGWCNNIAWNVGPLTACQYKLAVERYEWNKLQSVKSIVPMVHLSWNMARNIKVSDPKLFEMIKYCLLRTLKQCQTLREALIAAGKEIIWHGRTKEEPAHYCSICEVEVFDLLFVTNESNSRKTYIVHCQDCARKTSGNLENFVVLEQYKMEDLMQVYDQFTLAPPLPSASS
# assayDetails: KDM cell-free assay (AlphaScreen, BPS Bioscience)
# Assay type: biochemical
# testSettings: 1 μM; Table 2
measuredParameter: inhibition at 1 µM
In your response, put the unit directly after the numeric value.

{"columns": ["givenSmiles", "testedTarget", "inhibition at 1 µM"],
 "data": [
  ["Cc1c(O)c(=O)ccn1CCCCCn1cc(-c2ccc(F)cc2)nn1", "KDM6A (UTX) (Homo sapiens)", "10%"]
]}

# input compound: Cc1c(O)c(=O)ccn1CCCCCn1cc(-c2ccccn2)nn1 ; wanted: its inhibition at 1 µM 15%

And for Cc1cccc(-c2cn(CCCCn3ccc(=O)c(O)c3C)nn2)c1 ? 4%

Could you do the same for Cc1c(O)c(=O)ccn1CCn1cc(-c2ccccc2)nn1 , please? 12%

Now consider Cc1c(O)c(=O)ccn1CCCCCCn1cc(-c2ccc(-c3ccncc3)cc2)nn1 and answer again. 15%

Also, COc1cccc(-c2cn(CCCCn3ccc(=O)c(O)c3C)nn2)c1 please. 7%

Then this compound: COc1ccc2cc(-c3cn(CCCCCCn4ccc(=O)c(O)c4C)nn3)ccc2c1 16%

What do you have for Cc1c(O)c(=O)ccn1CCCCCn1cc(-c2ccccc2)nn1 ? 12%

Another compound to check: Cc1c(O)c(=O)ccn1CCCCCn1cc(-c2ccccc2F)nn1 16%

Would you mind doing Cc1c(O)c(=O)ccn1CCCCCn1cc(-c2ccc(-c3ccncc3)cc2)nn1 as well? 8%

This collection of values is drawn from paper PMC6423038.
